Entries and their measured T/C follow.
Tested on: P388 leukemia ip, CD2F1 mice, survival T/C
Experimental Protocol: NCI In Vivo Anticancer Drug Screen. Data for tumor model P388 Leukemia (intraperitoneal) in CD2F1 (CDF1) mice
Experimental Context: endpoint: median survival time; dose: 400.0 mg/kg/injection; schedule: Q01DX001 (ip); vehicle: Klucel (hydroxypropylcellulose) (HPC); higher = longer survival
Toxic doses and inconclusive results are not listed.

Q. Sample O=C1CC(C2(c3ccccc3)SCCCS2)CO1 (stereo not drawn) — what was its T/C?
A. 100 % of control

Q. # lookup: T/C of CC(C)COP(=O)([O-])OCC[N+](C)(C)C
A. 100 % of control

Q. Query (compound): NC(=S)c1ccc(N=Cc2cccs2)cc1 ; field requested: T/C
A. 102 % of control

---

Parameter: T/C. Scope: all listed entries.
Tested on: P388 leukemia ip, CD2F1 mice, survival T/C
Experimental Protocol: NCI In Vivo Anticancer Drug Screen. Data for tumor model P388 Leukemia (intraperitoneal) in CD2F1 (CDF1) mice
Experimental Context: endpoint: median survival time; dose: 50.0 mg/kg/injection; schedule: Q01DX005 (ip); vehicle: saline; higher = longer survival
Toxic doses and inconclusive results are not listed.

Q. # T/C lookup, item CC1CC(=O)NC(N)=N1 (stereo unspecified)
A. 98 % of control

Q. Would you kindly share the measured T/C for CN1CC(C(N)=O)=CC(C(N)=O)C1 (stereo unspecified) ?
A. 96 % of control

---

System: P388 leukemia ip, CD2F1 mice, survival T/C
Experimental Protocol: NCI In Vivo Anticancer Drug Screen. Data for tumor model P388 Leukemia (intraperitoneal) in CD2F1 (CDF1) mice
Experimental Context: endpoint: median survival time; dose: 25.0 mg/kg/injection; schedule: Q01DX005 (ip); vehicle: Klucel (hydroxypropylcellulose) (HPC); higher = longer survival
Inconclusive results and toxic doses are left out.
Recorded Endpoint: T/C

Look over these answered cases.
{"Compound": "CN(C)C1=C(Cl)C(=O)c2[nH]cnc2C1=O", "T/C": "98 % of control"}
{"Compound": "CCN(CC)Cc1cc(N=Nc2cc(OC)c(N=Nc3ccc([N+](=O)[O-])cc3)cc2OC)c2cccnc2c1O", "T/C": "107 % of control"}
{"Compound": "CCOC(=O)C1=C(C)NC(=O)NC1c1coc2cc(C)cc(C)c2c1=O (stereo not drawn)", "T/C": "91 % of control"}
{"Compound": "[N-]=[N+]=CC(=O)NC(Cc1ccccc1)C(=O)NN (stereo not drawn)", "T/C": "107 % of control"}
{"Compound": "C/C(=N\\O)C1CCN(Cc2ccccc2)CC1", "T/C": "110 % of control"}
{"Compound": "CS(=O)(=O)C(=C1C(=O)NC(=O)NC1=O)S(C)(=O)=O", "T/C": "100 % of control"}
{"Compound": "O=[N+]([O-])c1ccc2c(c1)nc(-c1ccccn1)n2CCc1ccncc1", "T/C": "95 % of control"}
{"Compound": "CCN(CC)c1ccc(C(=N)c2ccc(N(CC)CC)cc2)cc1", "T/C": "99 % of control"}
{"Compound": "C=C1C(=O)OC2/C=C(\\C=O)C3OC3C3OC3(C)CC(OC(=O)/C(=C/C)CO)C12 (stereo not drawn)", "T/C": "101 % of control"}
{"Compound": "CCOC(=O)c1cc(CC)[nH]c(=O)c1C#N", "T/C": "92 % of control"}

Q. # T/C lookup, item O=C1c2ccccc2C(=O)c2c(NC(=O)C(F)(F)F)cccc21
A. 93 % of control

Q. Recorded T/C for Cc1cccc(C(O)(c2cccc(C)c2)C2(O)CCN(C)CC2)c1 , please?
A. 98 % of control

Q. Report T/C for OC(C1=CCCCC1)(c1ccccc1)c1ccccc1 please.
A. 98 % of control

Q. Would you kindly share the measured T/C for COC(=O)C1C(O)CCC2CN3CCc4c([nH]c5cccc(OC)c45)C3CC21 (stereo not drawn) ?
A. 104 % of control

Q. Given CCCCn1c(CCC)nc([N+](=O)[O-])c1Sc1ncn[nH]1 , state its recorded T/C.
A. 98 % of control

Q. Can you look up the measured T/C of N/C(=N\N=C/c1ccccc1)NN(Cc1ccccc1)N=O for me?
A. 100 % of control

Q. Entry O=C1/C(=N\O)Cc2cc(Cl)ccc21 has what T/C?
A. 111 % of control

Q. Which T/C reading was recorded for the compound CC(C)=CCc1c(C)cc2cc3c(c(O)c2c1O)C(O)=CC(=O)C3(CC=C(C)C)C/C=C(\C)CO (stereo not drawn) ?
A. 103 % of control
